- ASSAY_EXPLANATION: yeast display, Sf9 membrane polyspecificity reagent, FACS + sequencing; frameworks hold sequencing errors
ASSAY_READOUT: polyreactivity (PSR sort gate)

[[record]]
record_sequence = "QVQLVESGGGLVQAGGSLRLSCAASGFIFYLYTMGWYRQAPGKERELVAAITGGGGTYYADSVKGRFTISRDNAKNTVYLQMNSLKPEDTAVYYCAAEYYLYLWDEYDYWGQGTQVTVSS"
assay_readout = "polyreactivity (PSR sort gate)"
obs_value = "high polyreactivity"

[[record]]
record_sequence = "QVQLVESGGGLVQAGGSLRLSCAASGGILSDYAMGWYRQAPGKERELVAAITISGGRTNYADSVKGRITISRDNAKITVYLQMNSLKPEDTAVSYCNKLPWSVRVYKPYDYWGEGTQVTVSS"
assay_readout = "polyreactivity (PSR sort gate)"
obs_value = "low polyreactivity"

[[record]]
record_sequence = "QVQLVESGGGLVQAGGSLRLRCAASGRIFRPYTMGWYRQAPGKERELVAGITSSGGGTYYADSVKGRFTISRDNAKNTVYLHMNSLKPEDSAVYYCNRRGWSRTHQYDYWGQGTQVTVSS"
assay_readout = "polyreactivity (PSR sort gate)"
obs_value = "high polyreactivity"

[[record]]
record_sequence = "QVQHVESGGGLVQAGGSLRLSCAASGITYGRYTMGWYRQAPGKERELVAAITNGDITYYADSVKGRFTISRDNAKNTVYLQMNSLKQEDTAVYYCAADRYFWYDYWGQGTQVTVSS"
assay_readout = "polyreactivity (PSR sort gate)"
obs_value = "high polyreactivity"

[[record]]
record_sequence = "QVQLVESGGGLVQAGGSLRLSCAASGSTFGRNALGWYRQAPGKERELVASISWGGGSTYYADSVKGRFTISRDNAKNTVYLQMNSLKPEDTAVYYSNARRFLWSQLSGSFSYDYWGQGTQVTVSS"
assay_readout = "polyreactivity (PSR sort gate)"
obs_value = "high polyreactivity"

[[record]]
record_sequence = "QVQLVESGGGLVQAGGSLRLSCAASGSIFPRYAMGWYRQAPGKERELVAAITSGGSTNYADSVKGRFTISRDNAKNTVYLQMNSLKPDDTAVYYCATVRSLKEGASYFYWGQGTQVTVSS"
assay_readout = "polyreactivity (PSR sort gate)"
obs_value = "high polyreactivity"

[[record]]
record_sequence = "QVQLVESGGGLVQAGGSLRLSCAASGRIFRYYAMGWYRQAAGKERELVAAIRYRSGGTSYADSVKGRFTISRDNAKNTVYLQMNSLKPEDTAVYYCNADKRLRGHGYDYWGQGTQVTVSS"
assay_readout = "polyreactivity (PSR sort gate)"
obs_value = "high polyreactivity"

[[record]]
record_sequence = "QVHLVESGGGLVQAGVSLRLSCAASGFTFYRNAMGWYRQAPGKERELVAAISSRGGSTYYADSVKGRFTISRYNANNTVYFQMNSLKPEDTAVYYCAAYGNYNEYDYWGPGTQVTVSS"
assay_readout = "polyreactivity (PSR sort gate)"
obs_value = "high polyreactivity"

[[record]]
record_sequence = "QVQLVESGGGLVQARGSLRLSCAASGSIFNRNAMGWYRQAPGKERELVAAISRRGGSTYYADSVKGRFTISRDNEKNSVYLQMNSLKPEDTAVYYCAAATRKTEYDYWGQGTEVTVSS"
assay_readout = "polyreactivity (PSR sort gate)"
obs_value = "low polyreactivity"

[[record]]
record_sequence = "QVQLVESGGGLVQAGGSLRLSCAASGRTFRYYAMGWYRQAPGKERELVAAISSSGDRTYYADSVKGRFTISRDNAKNTVYLQMNSLKPEDTAVFYCAADRGARGDYWGQGTQVTVSS"
assay_readout = "polyreactivity (PSR sort gate)"
obs_value = "high polyreactivity"

[[record]]
record_sequence = "QVQLVESGGGLVQAGGSLRLSCAASGSIFAFNVMGWYRQAPGKERELVAAITWGGRTYYADSVKGRFTISRDNAKNTVYLQMNSLKPEDTAVYYCAAYPLYRVSHGYEYNYWGQGTQVTVSS"
assay_readout = "polyreactivity (PSR sort gate)"
obs_value = "high polyreactivity"

[[record]]
record_sequence = "HVQLVESGGGLVQAGGSLRLRCAASGITFAEYTMGWYRQAPGKERELVAAISRRGGSTYYADSVKGRLTISRDNAKNTVYLQMNSLKPEDTAVYYCNALFRYSRDYWGQGTQVTVSS"
assay_readout = "polyreactivity (PSR sort gate)"
obs_value = "high polyreactivity"

[[record]]
record_sequence = "QVQLVESGGGLVQAGGSLRLSCAASGRIFSYYAMGWYRQAPGKERELVAAISRTGGRTYYADSVKGRFTISRDNAKNTVYLQKNSLKPEDTAVYYCNVVGRRYWHWDQALDYWGQGTQVTVSS"
assay_readout = "polyreactivity (PSR sort gate)"
obs_value = "high polyreactivity"

[[record]]
record_sequence = "QVQLGESGGGLVQAGGSLRLSCVASGFIFRGNAMGWYRQAPGKERELVATISSGGNTYYADSVKGRFTISRDNAKNTVYLQINSLKPEDTAVYYCNASDGLPTKLNVYVEFDYWGQGTQVTVSS"
assay_readout = "polyreactivity (PSR sort gate)"
obs_value = "low polyreactivity"

[[record]]
record_sequence = "QVQLVESGGGLVQAGGSLRLSCAASGRTFGRNAMGWYRQAPGKEREFVAAISRRGDTTYYADSVKGRFTISRDNAKNSVYLQMNSLKPEDTAVYYCNAAVIKDRFSWYYYWGQGTQVTVSS"
assay_readout = "polyreactivity (PSR sort gate)"
obs_value = "low polyreactivity"

[[record]]
record_sequence = "QVQLVESGGGLVQAGGSLRLSCAASGFIFAFYAMGWYRQAPGKERELVAAISLSGGSTYYADSVKGRFTISRDNAKITVYLQMNSLKPDDTAVYYCAASRYKFYYWGQGTQVTVSS"
assay_readout = "polyreactivity (PSR sort gate)"
obs_value = "high polyreactivity"

[[record]]
record_sequence = "QVQLVESGGGLVQAGGSLRLSCAASGFTFRQNSIGWSRQAPGKERELVAAISRSGSRTYYADSVKGRFTISRDNAKNTVYLQMIRLKPEDTAVYYCKAVFSSFTVEYYWGQGTQVTVSS"
assay_readout = "polyreactivity (PSR sort gate)"
obs_value = "high polyreactivity"

[[record]]
record_sequence = "QVQLVESGGGLVQAGGSLRISCAASGYIFRFNAMGCYRPAPGKERELVAVITSGARTYYADSVKGRFTISRDNAKNTVYLQMNSLKPEDNAVYYCNAGARRYLYDYWGQGTQVTVSS"
assay_readout = "polyreactivity (PSR sort gate)"
obs_value = "low polyreactivity"

[[record]]
record_sequence = "QVQLVESGGGLVQAGGILRLSCAASGSTFYGYAMGWYRQAPGKERELVAAITRSGGSTYYADSVKGRFTISRDNAKNTVYLQMNSLKPEDTEVYYCNKYGYKGGVGYDYWGQGTQVTVSS"
assay_readout = "polyreactivity (PSR sort gate)"
obs_value = "high polyreactivity"

[[record]]
record_sequence = "QVQLVESGGGLVQAGGSLRLSCAASGFIFFINDMGWYRQAPGKERELVAAISWSGGSTYYADSVKGRFTISRDNAKNTVYLQMNSLKPEDTAVYYCAADWLIYDLSRFDYWGQGTQVTVSS"
assay_readout = "polyreactivity (PSR sort gate)"
obs_value = "low polyreactivity"

[[record]]
record_sequence = "QVQLVESGGGLVQAGRSLRLSCAASGFTFVWYAMGWYRQAPGTERELVAAISRRGTRTYYADSVKGRFTISRDNAKNTVYLQMNSLKPEDTAVYYCAASNGYQAVTYDYWGQGTQVTVSS"
assay_readout = "polyreactivity (PSR sort gate)"
obs_value = "high polyreactivity"


Hey, just so you know, these numbers are from the nanobody polyreactivity screen of Harvey et al. (2022).
